B1: POU domain, class 2, transcription factor 3, residues 186 to 260; numbered along this chain, Q9UKI9 (parent)
chain: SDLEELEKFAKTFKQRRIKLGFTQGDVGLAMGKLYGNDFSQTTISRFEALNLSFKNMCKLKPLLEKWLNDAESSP

variants of: B1; assay: abundance fitness (aPCA) (normalised: wild type 0, dead -1); higher = more abundant; growth selection in yeast, the domain comes from the species named; conditions: Homo sapiens
Catalogue of abundance fitness readings, one per entry.

- mutation-id: "E5W"
  abundance fitness: -0.137
- mutation-id: "I18R"
  abundance fitness: -0.057
- mutation-id: "L68G"
  abundance fitness: -0.563
- mutation-id: "N69W"
  abundance fitness: 0.014
- mutation-id: "D70G"
  abundance fitness: -0.006
- mutation-id: "E65N"
  abundance fitness: -0.047
